Attribution: paper PMC7229567

# Assay overview: Stability of the analytes in rat plasma QC samples under storage conditions
# Format: in vitro ADME
# Measurement conditions: 3000 ng/mL, three freeze-thaw cycles
Observable: Freeze-thaw cycles Remain (%)
Use % as the unit, but write only the number.

Molecule	Reported result
O=C(O)C1=CO[C@@H](O[C@@H]2O[C@H](CO)[C@@H](O)[C@H](O)[C@H]2O)[C@@H]2C(CO)=CC[C@H]12	108
COC(=O)C1=CO[C@@H](O[C@@H]2O[C@H](CO)[C@@H](O)[C@H](O)[C@H]2O)[C@@H]2C(CO)=CC[C@H]12 [Geniposide]	95.0
COC(=O)C1=CO[C@@H](O[C@@H]2O[C@H](CO[C@@H]3O[C@H](CO)[C@@H](O)[C@H](O)[C@H]3O)[C@@H](O)[C@H](O)[C@H]2O)[C@@H]2C(CO)=CC[C@H]12 [Genipin-1-β-gentiobioside]	103
CC(/C=C/C=C(\C)C(=O)O)=C\C=C\C=C(C)\C=C\C=C(/C)C(=O)O	106

Continue with the next molecule.
Task: Requested read-out: Freeze-thaw cycles Remain. Entry: COC(=O)C1=CO[C@@H](O)[C@@H]2C(CO)=CC[C@H]12
Result: 100
